# GI50 annotations
- Tested on: RPMI-8226
- experiment.summary: NCI tumour cell line growth inhibition, 48 h
Calls of active or inactive are those of the source. No stated cut-off is given here; in the data, active = GI50 up to about 1.1 µM and inactive = higher.

[[record]]
molecule = "CCOC(=O)C(=O)Nc1c(C)cccc1C"
target_desc = "RPMI-8226"
measured = "> 100 µM (inactive)"

[[record]]
molecule = "O=C(CCCl)NN=C1NCCCCN1"
target_desc = "RPMI-8226"
measured = "> 100 µM (inactive)"

[[record]]
molecule = "CN1CCN(c2c(Cl)cc(Cl)c3[nH]c4ccccc4c(=O)c23)CC1"
target_desc = "RPMI-8226"
measured = "3.1 µM (inactive)"

[[record]]
molecule = "COC(CNC(=O)C(C)NC(=O)CCc1ccccc1)OC (stereo not drawn)"
target_desc = "RPMI-8226"
measured = "> 100 µM (inactive)"

[[record]]
molecule = "CCN1C(=O)C(=C/C=C/c2ccc(OC)cc2)C(=O)N(CC)C1=S"
target_desc = "RPMI-8226"
measured = "33.6 µM (inactive)"

[[record]]
molecule = "CCOc1ccc(/N=N/S(=O)(=O)O)cc1"
target_desc = "RPMI-8226"
measured = "> 100 µM (inactive)"


Ask | Which GI50 is listed for COc1ccc(N2C(=O)C(=O)C3(CCCCC3)C2=O)c2ccccc12 ?
Reply | > 10 µM (inactive)

Ask | Form field: reported GI50 of CC1(C)Cc2nnsc2C2=C1C(=O)CCS2
Reply | > 100 µM (inactive)

Ask | Record request: GI50 value, item CC(=O)OCC1OC(n2cnc(C(N)=S)c2N)C(OC(C)=O)C1OC(C)=O (stereo not drawn)
Reply | > 100 µM (inactive)

Ask | For the molecule CC(C)CCCC(C)[C@H]1CC[C@H]2n3c(nc4ccccc43)CCC[C@]12C (stereo partly drawn) , what GI50 is on record?
Reply | 10.8 µM (inactive)

Ask | # input molecule: O=[N+]([O-])c1cccc(C2=NN(c3ccccc3)C[N+](c3ccc(Br)cc3)=N2)c1 ; wanted: its GI50
Reply | 82 µM (inactive)

Ask | I'd like to know its GI50. The molecule in question is COc1cc(/C=C/c2ccc(OC)c(O)c2)cc(OC)c1
Reply | 2.19 µM (inactive)

Ask | Which GI50 is listed for CCCC/C=C/C=C/C=C/CCCCCCCC(=O)OCC(COC(=O)CCCCCCC/C=C/C1C=CC(CCCC)C(C(=O)O)C1C(=O)O)OC(=O)CCCCCCC/C=C/C=C/C=C/CCCC.OCCNCO (stereo not drawn) ?
Reply | 3.78 µM (inactive)

* * *

- Test system: NCI-H460
- experiment.summary: NCI tumour cell line growth inhibition, 48 h
The source made the active and inactive calls. Rule as the data show it: active = GI50 up to about 1.1 µM and inactive = higher.
Output constraint: value belongs to 1.0 for active, 0.0 for inactive

Solved entries (count: 3):
[[record]]
compound = "CC(C)C(=O)CC(Sc1ccc(N)cc1)c1ccccc1 (stereo not given)"
discrete_label = 0.0

[[record]]
compound = "CC1(C)O[C@@H]2[C@@H]3OC(=O)C[C@@H]3[C@@H](COCc3ccccc3)[C@@H]2O1"
discrete_label = 0.0

[[record]]
compound = "CC(OCc1ccccc1)C(NC(=O)C1CSSCC(NC(=O)C(Cc2ccccc2)NC(=O)OCc2ccccc2)C(=O)NC(Cc2ccccc2)C(=O)NC(Cc2cn(C=O)c3ccccc23)C(=O)NC(CCCCNC(=O)OCc2ccccc2)C(=O)NC(C(C)OCc2ccccc2)C(=O)N1)C(N)=O (stereo not given)"
discrete_label = 0.0


Ask | Please let me know the test result on file for CCN(CC)c1ccc(C(=C2C=CC(=[N+](CC)CC)C=C2)c2ccccc2)cc1 .
Reply | 1.0

Ask | What outcome does the record of this test show for N#Cc1c(C[n+]2ccccc2)c2ccccc2oc1=O ?
Reply | 0.0

Ask | Record request — test call for O=C(O)CCCCCOc1cccnc1/C=N/NC1=NCCN1
Reply | 0.0

Ask | Please share the test call associated with O=C1C(CN2CCCCC2)CCC1CN1CCCCC1 (stereo not given) .
Reply | 0.0

Ask | Given O=C1NC(c2ccccc2Cl)Nc2ccccc21 (stereo not given) , state the outcome it received in this test.
Reply | 0.0

Ask | Hi, sorry to bother you, what did the test record for CN(CC(=O)O)c1ncc2c(n1)-c1ccccc1CC2 ?
Reply | 0.0

Ask | Short answer needed: outcome of this test for Cc1cccc(N2C(=O)C3c4[nH]c5ccccc5c4C4CCC(C(C)(C)C)CC4C3C2=O)c1 (stereo not given) ?
Reply | 0.0
